assay: Plasma concentration in human at 500 mg, iv infused for 5 mins; type: ADME, organism-based

{"columns": ["molecule", "concentration at 5 min, µg/mL"],
 "data": [
  ["Cc1onc(-c2c(F)cccc2Cl)c1C(=O)N[C@@H]1C(=O)N2[C@@H]1SC(C)(C)[C@@H]2C(=O)O [FLOXACILLIN]", 86.8]
]}

====

experiment: Volume of distribution at steady state in human at 500 mg, iv infused for 5 mins; format: ADME, organism-based; settings: in vivo, read-out: Vdss

{"columns": ["molecule", "Vd"],
 "data": [
  ["Cc1onc(-c2c(F)cccc2Cl)c1C(=O)N[C@@H]1C(=O)N2[C@@H]1SC(C)(C)[C@@H]2C(=O)O [FLOXACILLIN]", "9.63 L"]
]}

// provenance: ChEMBL document CHEMBL1143421
